Recorded values, source patent EP0211490B1.

Test system: K. aridum
Test: susceptibility of K. aridum to antibiotic disks (diffusion method)
Format: cell-based, Kibdelosporangium aridum
Details: BBL susceptibility disks, content per antibiotic; one week at 28°C
endpoint: susceptibility by the diffusion method (in words)

- compound: "CCC[C@@H]1C[C@@H](C(=O)N[C@@H]([C@H]2O[C@H](SC)[C@H](O)[C@@H](O)[C@H]2O)[C@@H](C)O)N(C)C1 [lincomycin]"
  observed: "resistant"
- compound: "CC(=O)OCC1=C(C(=O)O)N2C(=O)[C@@H](NC(=O)Cc3cccs3)[C@H]2SC1 [cephalothin]"
  observed: "resistant"
- compound: "[H]/N=C(/N)N[C@H]1[C@H](O)[C@@H](O)[C@H](O[C@@H]2O[C@@H](C)[C@](O)(C=O)[C@H]2O[C@@H]2O[C@@H](CO)[C@H](O)[C@@H](O)[C@@H]2NC)[C@@H](N/C(N)=N\\[H])[C@@H]1O [streptomycin]"
  observed: "resistant"

====

Tested on: K. aridum
Test: susceptibility of K. aridum to antibiotic disks (diffusion method)
Assay type: cell-based, Kibdelosporangium aridum
Details: BBL susceptibility disks, content per antibiotic; one week at 28°C
Bridge positions count the residues as written; N and C are the ends. Square brackets hold non-standard residues; d marks the D form. Peptide text beside a SMILES is read from it. * marks the point of attachment. Ileψ(thiazoline)Cys = CC[C@H](C)[C@H](N)C1=N[C@H](C(=O)*)CS1; dOrn = NCCC[C@@H](N)C(=O)O
endpoint: susceptibility by the diffusion method (in words)

- compound: "CC[C@H](C)[C@H](N)C1=N[C@H](C(=O)N[C@@H](CC(C)C)C(=O)N[C@H](CCC(=O)O)C(=O)N[C@H](C(=O)N[C@H]2CCCCNC(=O)[C@H](CC(N)=O)NC(=O)[C@@H](CC(=O)O)NC(=O)[C@H](Cc3cnc[nH]3)NC(=O)[C@@H](Cc3ccccc3)NC(=O)[C@H]([C@@H](C)CC)NC(=O)[C@@H](CCCN)NC2=O)[C@@H](C)CC)CS1 [bacitracin] ({Ileψ(thiazoline)Cys}-L[dE]IK[dOrn]I[dF]H[dD]N; lactam 4-C)"
  observed: "resistant"
- compound: "CN[C@H](CC(C)C)C(=O)N[C@H]1C(=O)N[C@@H](CC(N)=O)C(=O)N[C@H]2C(=O)N[C@H]3C(=O)N[C@H](C(=O)N[C@H](C(=O)O)c4cc(O)cc(O)c4-c4cc3ccc4O)[C@H](O)c3ccc(c(Cl)c3)Oc3cc2cc(c3O[C@@H]2O[C@H](CO)[C@@H](O)[C@H](O)[C@H]2O[C@H]2C[C@](C)(N)[C@H](O)[C@H](C)O2)Oc2ccc(cc2Cl)[C@H]1O"
  observed: "resistant"
- compound: "NC[C@H]1O[C@H](O[C@H]2[C@H](O)[C@@H](O[C@H]3O[C@H](CO)[C@@H](O)[C@H](N)[C@H]3O)[C@H](N)C[C@@H]2N)[C@H](N)C[C@@H]1O"
  observed: "resistant"
